Let's look at some compounds and their measured pKi.
Target: UniProtKB P04585
Assay: biochemical
Conditions: Table II; enzyme HIV-1; read-out: FITC KI
pKi: −log10 of the molar value.

Compound	pKi
Cn1cnc(S(=O)(=O)Nc2cccc(C(C3=C(O)CC(CCc4ccccc4)(CCc4ccccc4)OC3=O)C(C)(C)C)c2)c1 (stereo not drawn) [Example 343]	8.54
CCC[C@]1(CCc2ccc(F)cc2)CC(O)=C([C@H](c2cccc(NS(=O)(=O)c3cn(C)cn3)c2)C(C)(C)C)C(=O)O1 (single isomer, unassigned) [Example 352]	6.77
CC(C)(C)C(C1=C(O)CC(CCc2ccccc2)(CCc2ccccc2)OC1=O)c1cccc(NS(=O)(=O)c2ccc(C#N)cn2)c1 (stereo not drawn) [Example 344]	8.23
CCC(C1=C(O)C2CCCCC2OC1=O)c1cccc(NS(=O)(=O)c2ccc(C#N)cn2)c1 (stereo not drawn) [Example 370]	9.23
CCC(C1=C(O)C2CCCCCC2OC1=O)c1cccc(NS(=O)(=O)c2ccc(C#N)cn2)c1 (stereo not drawn) [Example 372]	8.40
CCC(C1=C(O)CC(CCc2ccc(F)cc2)(CCc2ccc(F)cc2)OC1=O)c1cccc(NS(=O)(=O)c2ccc(C(N)=O)cn2)c1 (stereo not drawn) [Example 333]	8.11
